Target: human alpha2C receptors (Homo sapiens)
Test: Determination of alpha2C antagonistic activity in vitro (FLIPR calcium assay)
Where a name gives a salt, the structure may show the parent alone.
test.readout: IC50

Guide cases for IC50, answers given:
{"molecule": "Fc1ccc2c(c1)ncn2[C@H]1CCCN(C[C@H]2COc3ccccc3O2)C1 [example 87]", "measurement.target": "human alpha2C receptors (Homo sapiens)", "IC50": "< 0.1 nM"}
{"molecule": "CC1(c2ccccc2)CC(=O)N([C@H]2CCCN(C[C@H]3COc4ccccc4O3)C2)C1=O (some centres unmarked) [example 35]", "measurement.target": "human alpha2C receptors (Homo sapiens)", "IC50": "< 0.01 nM"}
{"molecule": "Cc1ccc2c(c1)CN([C@H]1CCCN(C[C@H]3COc4ccccc4O3)C1)C2=O [example 59, formate]", "measurement.target": "human alpha2C receptors (Homo sapiens)", "IC50": "< 0.01 nM"}
{"molecule": "CC(=O)N1CCC(N2C(=O)C(=O)N([C@H]3CCCN(C[C@H]4COc5ccccc5O4)C3)C2=O)CC1 [example 139]", "measurement.target": "human alpha2C receptors (Homo sapiens)", "IC50": "0.113 nM"}
{"molecule": "Cc1nc2ccccc2n1[C@H]1CCCN(C[C@H]2COc3ccccc3O2)C1 [example 150]", "measurement.target": "human alpha2C receptors (Homo sapiens)", "IC50": "< 0.1 nM"}

Please state IC50 for every molecule in the list that follows.
1. O=C1[C@H]2CCCC[C@H]2C(=O)N1[C@H]1CCCN(C[C@H]2COc3ccccc3O2)C1 [example 93, hydrochloride]
2. CC1(c2ccccc2)NC(=O)N([C@H]2CCCN(C[C@H]3COc4ccccc4O3)C2)C1=O (some centres unmarked) [example 74]
3. O=C1c2ccc(Cl)cc2CN1[C@H]1CCCN(C[C@H]2COc3ccccc3O2)C1 [example 60]

["0.091 nM", "< 0.1 nM", "< 0.1 nM"]

---

Biological target: human alpha2A receptors (Homo sapiens, UniProt P08913)
Sequence (P08913 whole entry): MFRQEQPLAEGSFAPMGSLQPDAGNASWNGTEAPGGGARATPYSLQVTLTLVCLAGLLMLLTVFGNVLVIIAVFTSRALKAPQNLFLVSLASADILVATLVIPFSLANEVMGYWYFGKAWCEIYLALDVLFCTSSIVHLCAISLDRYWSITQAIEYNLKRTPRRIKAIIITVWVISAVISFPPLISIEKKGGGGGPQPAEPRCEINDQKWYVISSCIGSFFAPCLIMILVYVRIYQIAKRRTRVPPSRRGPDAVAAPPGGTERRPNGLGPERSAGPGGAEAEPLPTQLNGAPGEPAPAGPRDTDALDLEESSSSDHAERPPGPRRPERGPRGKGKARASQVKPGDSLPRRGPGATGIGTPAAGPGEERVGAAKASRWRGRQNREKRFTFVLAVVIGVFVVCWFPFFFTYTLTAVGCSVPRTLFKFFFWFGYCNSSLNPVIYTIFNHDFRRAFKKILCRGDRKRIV
Assay: cell-based
pIC50: −log10 of the molar value. Where a name gives a salt, the structure may show the parent alone.
So I've got a bunch of molecules here, and I need their pIC50 values.

Example cases with answers are listed next.
{"molecule": "CC(C)N1C(=O)N([C@H]2CCCN(C[C@H]3COc4ccccc4O3)C2)C[C@@H]1c1ccccc1 [example 7]", "pIC50": 5.76}
{"molecule": "O=C1c2cccnc2C(=O)N1[C@H]1CCCN(C[C@H]2COc3ccccc3O2)C1 [example 75]", "pIC50": "< 5.00"}
{"molecule": "O=C1C(=O)N([C@H]2CCCN(C[C@H]3COc4ccccc4O3)C2)C(=O)N1Cc1cccnc1 [example 143]", "pIC50": "< 5.00"}
{"molecule": "CCc1nc2cccnc2n1[C@H]1CCCN(C[C@H]2COc3ccccc3O2)C1 [example 159]", "pIC50": "< 5.00"}
{"molecule": "O=C1c2scnc2CN1[C@H]1CCCN(C[C@H]2COc3ccccc3O2)C1 [example 79]", "pIC50": "< 5.00"}

Provide each entry's pIC50 from the list below.
1. COc1cc2c(cc1OC)C(=O)N([C@H]1CCCN(C[C@H]3COc4ccccc4O3)C1)C2 [example 68]
2. O=C1c2ccc(F)c(F)c2CN1[C@H]1CCCN(C[C@H]2COc3ccccc3O2)C1 [example 56, hydrochloride]
3. CC(C)(C)N1C(=O)C(=O)N([C@H]2CCCN(C[C@H]3COc4ccccc4O3)C2)C1=O [example 134]
4. O=C1c2ccc(F)cc2CN1[C@H]1CCCN(C[C@H]2COc3ccccc3O2)C1 [example 58, hydrochloride]
5. O=C1N(Cc2ccccc2)CCN1[C@H]1CCCN(C[C@H]2COc3ccccc3O2)C1 [example 50]
6. Clc1ccc2ncn([C@H]3CCCN(C[C@H]4COc5ccccc5O4)C3)c2c1 [example 89]

1: < 5.00; 2: < 5.00; 3: < 5.00; 4: < 5.00; 5: 5.99; 6: 5.02

# map each molecule to its pIC50
1. CN(C)Cc1nc2ccc(Cl)cc2n1[C@H]1CCCN(C[C@H]2COc3ccccc3O2)C1 [example 152]
2. COc1ccc2nc(C)n([C@H]3CCCN(C[C@H]4COc5ccccc5O4)C3)c2n1 [example 155]

1. 6.54
2. < 5.00

Batch lookup, pIC50 per entry.
1. CC(C)C1CN([C@H]2CCCN(C[C@H]3COc4ccccc4O3)C2)C(=O)O1 (stereo partly shown) [example 19]
2. CCCN1C(=O)C(=O)N([C@H]2CCCN(C[C@H]3COc4ccccc4O3)C2)C1=O [example 132]
3. CC1=C(c2ccccc2)C(=O)N([C@H]2CCCN(C[C@H]3COc4ccccc4O3)C2)C1 [example 42]
4. CN1CCN([C@H]2CCCN(C[C@H]3COc4ccccc4O3)C2)C1=O [example 101]
5. O=C1c2cccc(Cl)c2C(=O)N1[C@H]1CCCN(C[C@H]2COc3ccccc3O2)C1 [example 64, hydrochloride]
6. CC1(C)CC(=O)N([C@H]2CCCN(C[C@H]3COc4ccccc4O3)C2)C1 [example 1]
7. O=C1Cc2ccccc2N1[C@H]1CCCN(C[C@H]2COc3ccccc3O2)C1 [example 26]
8. O=C1CN(C2CC(F)(F)C2)C(=O)N1[C@H]1CCCN(C[C@H]2COc3ccccc3O2)C1 [example 121]

1. < 5.00
2. < 5.00
3. < 5.00
4. < 5.00
5. < 5.00
6. < 5.00
7. < 5.00
8. < 5.00

Need pIC50 of O=c1[nH]c2c(F)cccc2n1[C@H]1CCCN(C[C@H]2COc3ccccc3O2)C1 [example 154] , thanks.
< 5.00

---

Target: human alpha2C receptors (Homo sapiens, UniProt P18825)
Sequence (P18825 whole entry): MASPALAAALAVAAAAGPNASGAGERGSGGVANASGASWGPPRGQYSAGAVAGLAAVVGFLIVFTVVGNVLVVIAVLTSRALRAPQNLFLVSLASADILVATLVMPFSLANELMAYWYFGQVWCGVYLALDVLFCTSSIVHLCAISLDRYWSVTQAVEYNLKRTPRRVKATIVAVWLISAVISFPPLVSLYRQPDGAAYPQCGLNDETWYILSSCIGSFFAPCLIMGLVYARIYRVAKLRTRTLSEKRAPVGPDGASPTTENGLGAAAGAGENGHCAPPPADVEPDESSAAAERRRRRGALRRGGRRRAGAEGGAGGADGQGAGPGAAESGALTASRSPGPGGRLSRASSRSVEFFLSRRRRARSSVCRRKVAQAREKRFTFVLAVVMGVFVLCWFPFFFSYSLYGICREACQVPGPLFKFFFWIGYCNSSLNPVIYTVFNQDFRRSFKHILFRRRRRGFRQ
Assay: Determination of alpha2C antagonistic activity in vitro (FLIPR calcium assay)
pIC50: −log10 of the molar value.
Kindly state pIC50 for each of the entries shown.

The examples below pair each entry with its known result.
{"compound": "C[C@@H](c1ccccc1)N1C(=O)C(=O)N([C@H]2CCCN(C[C@H]3COc4ccccc4O3)C2)C1=O [compound 133]", "measurement.target": "human alpha2C receptors (Homo sapiens, UniProt P18825)", "test.readout": "pIC50", "experimental.result": "> 11.00"}
{"compound": "O=C1c2ccc(F)cc2C(=O)N1[C@H]1CCCN(C[C@H]2COc3ccccc3O2)C1 [example 62]", "measurement.target": "human alpha2C receptors (Homo sapiens, UniProt P18825)", "test.readout": "pIC50", "experimental.result": "> 10.00"}

From here, focus on the item given below.
What value of pIC50 on human alpha2C receptors (Homo sapiens, UniProt P18825) does Clc1ccc2c(c1)ncn2[C@H]1CCCN(C[C@H]2COc3ccccc3O2)C1 [example 91] have?
> 10.00
